- tested_target: human HSD17B13 (Homo sapiens, UniProt Q7Z5P4)
- Sequence (Q7Z5P4 20-300): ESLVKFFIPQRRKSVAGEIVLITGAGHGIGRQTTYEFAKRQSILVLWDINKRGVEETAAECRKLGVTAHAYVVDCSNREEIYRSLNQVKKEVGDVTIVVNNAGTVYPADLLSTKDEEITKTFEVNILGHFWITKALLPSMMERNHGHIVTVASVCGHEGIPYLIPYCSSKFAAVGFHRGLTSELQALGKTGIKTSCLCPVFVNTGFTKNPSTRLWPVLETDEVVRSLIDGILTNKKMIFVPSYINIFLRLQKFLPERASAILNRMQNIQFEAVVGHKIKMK
- protocol_details: Substrate screening of steroid and bioactive lipid libraries against purified recombinant HSD17B13 (NADH-linked luciferase assay)
- Type: biochemical
- cond: Bioactive Lipid Library, 5 μM bioactive lipid (Estradiol Control 50 μM), 500 μM NAD+, 100 ng enzyme, 3 hours at 23° C.
Fulfilled if HSD17B13 Enzymatic Activity Relative Light Units is below 400000 RLU. Not fulfilled if not; exact matches included in Not fulfilled.

1) [2H]C([2H])(/C=C\C[C@H]1[C@@H](O)CC(=O)O[C@@H]1/C=C/[C@@H](O)CCCCC)C([2H])([2H])CC(=O)O [11-dehydro Thromboxane B2-d4]	Fulfilled
2) C[C@@H](O)CCC[C@H](O)/C=C/[C@H]1C=CC(=O)[C@@H]1C/C=C\CCCC(=O)O [19(R)-hydroxy Prostaglandin A2]	Fulfilled
3) CC(C)=CCC[C@]1(C)[C@@H](CC=C(C)C)C[C@@]2(CC=C(C)C)C(=O)[C@]1(C(=O)C(C)C)C(=O)C(CC=C(C)C)=C2O	Fulfilled
4) CCCCC/C=C\C[C@@H](/C=C/C=C\C/C=C\CCCC(=O)O)OO [12(S)-HpETE]	Fulfilled
5) CCCCC(C)(O)C/C=C/[C@H]1[C@@H](O)CC(=O)[C@@H]1CCCCCCC(=O)OC (stereo partly shown)	Fulfilled
6) CCCCC/C=C\C/C=C\C[C@H]1O[C@H]1C/C=C\CCCC(=O)NCCO [8(9)-EET Ethanolamide]	Not fulfilled

----------
Measured Percent of Control (POC), B11, listed per entry.
- tested_target: HSD17B11 (Homo sapiens)
- Construct: made in house
- Sequence (Q8NBQ5 20-300): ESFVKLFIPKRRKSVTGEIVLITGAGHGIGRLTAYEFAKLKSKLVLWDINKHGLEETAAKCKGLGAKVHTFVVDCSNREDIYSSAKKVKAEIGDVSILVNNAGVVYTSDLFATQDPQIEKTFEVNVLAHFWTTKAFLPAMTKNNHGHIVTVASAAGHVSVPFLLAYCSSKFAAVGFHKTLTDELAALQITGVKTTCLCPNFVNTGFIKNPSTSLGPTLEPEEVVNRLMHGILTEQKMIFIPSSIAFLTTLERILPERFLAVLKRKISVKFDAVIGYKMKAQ
- protocol_details: Steroid substrate panel against HSD17B family member B11
- Type: biochemical
- cond: substrate at 50 μM; estradiol set as 100%
- Description: To understand the functional consequences of premature truncation of the HSD17B13 protein due to rs72613567:TA (the associated variant, rs72613567, is an insertion of an adenine adjacent to the donor splice site of exon six (TA allele)), the enzymatic activity of isoforms A and D was evaluated in vitro using recombinant protein and nicotinamide […] dinucleotide as cofactor. […]
reported_endpoint: Percent of Control (POC), B11 (%)

1. C[C@]12CC[C@@H](O)C[C@H]1CC[C@@H]1[C@@H]2C(=O)C[C@]2(C)C(=O)CC[C@@H]12 [11-oxo-etiocholanolone]	0.0
2. CC(=O)OCC(=O)[C@H]1CC[C@H]2[C@@H]3CCC4=CC(=O)CC[C@]4(C)[C@H]3[C@@H](O)C[C@]12C [Corticosterone 21-acetate]	32.2
3. C[C@]12CC[C@@H](O)C[C@@H]1CC[C@@H]1[C@@H]2CC[C@]2(C)[C@@H](O)CC[C@@H]12 [3a-androstanediol]	0.0
4. C[C@]12CC[C@@H](O)C[C@@H]1CC[C@@H]1[C@@H]2CC[C@]2(C)C(=O)CC[C@@H]12 [Androsterone]	0.0
5. C[C@H](O)[C@@]1(O)CC[C@H]2[C@@H]3CC[C@@H]4C[C@H](O)CC[C@]4(C)[C@H]3CC[C@@]21C [Pregnanetriol]	26.1
6. C[C@]12CC[C@@H](O)C[C@H]1CC[C@@H]1[C@@H]2C(=O)C[C@@]2(C)[C@H]1CC[C@]2(O)C(=O)CO [TetrahydroCortisone]	0.0
